# ASSAY_TARGET: Voltage-gated inwardly rectifying potassium channel KCNH2 (Homo sapiens, UniProt Q12809)
# Sequence (Q12809 whole entry): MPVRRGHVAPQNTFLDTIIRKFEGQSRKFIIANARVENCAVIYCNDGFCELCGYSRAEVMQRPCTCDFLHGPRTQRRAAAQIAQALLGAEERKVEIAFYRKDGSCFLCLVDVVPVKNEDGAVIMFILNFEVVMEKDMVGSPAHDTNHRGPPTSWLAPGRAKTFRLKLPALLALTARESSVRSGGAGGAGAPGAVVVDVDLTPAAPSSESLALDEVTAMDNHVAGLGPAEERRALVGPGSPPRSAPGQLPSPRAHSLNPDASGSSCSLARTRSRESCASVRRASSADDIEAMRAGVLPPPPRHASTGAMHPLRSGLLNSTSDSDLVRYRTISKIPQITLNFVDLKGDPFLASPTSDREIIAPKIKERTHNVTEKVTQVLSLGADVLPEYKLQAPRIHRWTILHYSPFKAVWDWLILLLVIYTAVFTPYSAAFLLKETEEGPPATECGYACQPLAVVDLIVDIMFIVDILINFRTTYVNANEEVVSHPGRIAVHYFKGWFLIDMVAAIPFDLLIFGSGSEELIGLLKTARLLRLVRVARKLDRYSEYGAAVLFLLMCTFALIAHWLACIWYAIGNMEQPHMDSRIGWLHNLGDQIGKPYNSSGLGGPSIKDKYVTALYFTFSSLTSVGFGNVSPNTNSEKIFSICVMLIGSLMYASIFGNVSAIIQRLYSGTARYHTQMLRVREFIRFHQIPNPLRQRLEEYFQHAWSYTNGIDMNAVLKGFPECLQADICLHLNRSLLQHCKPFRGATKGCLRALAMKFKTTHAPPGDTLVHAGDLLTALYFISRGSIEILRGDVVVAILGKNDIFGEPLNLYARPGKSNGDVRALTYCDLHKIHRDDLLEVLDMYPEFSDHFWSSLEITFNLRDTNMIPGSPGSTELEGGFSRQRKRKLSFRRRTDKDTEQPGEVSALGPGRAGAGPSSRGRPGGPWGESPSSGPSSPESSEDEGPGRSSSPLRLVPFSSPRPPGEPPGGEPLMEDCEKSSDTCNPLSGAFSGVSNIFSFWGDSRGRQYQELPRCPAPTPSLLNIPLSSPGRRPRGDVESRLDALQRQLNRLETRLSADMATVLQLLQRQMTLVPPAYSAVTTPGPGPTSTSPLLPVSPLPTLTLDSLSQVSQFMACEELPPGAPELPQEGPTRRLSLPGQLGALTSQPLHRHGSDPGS
# TEST_PROTOCOL: Inhibition of human ERG expressed in CHO cells incubated for 2.5 mins by Q-patch-clamp electrophysiological analysis
pIC50: −log10 of the molar value.
TEST_READOUT: pIC50

### Prompt Voltage-gated inwardly rectifying potassium channel KCNH2 (Homo sapiens, UniProt Q12809) / pIC50 / CN1CN(CC2CC2)Cc2c(O)ccc3oc(-c4ccc(O)cc4)c(c23)C1=O : value?
### Response < 4.00

### Prompt Voltage-gated inwardly rectifying potassium channel KCNH2 (Homo sapiens, UniProt Q12809) / pIC50 / CN1CN(C2CCCC2)Cc2c(O)ccc3oc(-c4ccc(O)cc4)c(c23)C1=O : value?
### Response < 4.00

### Prompt Voltage-gated inwardly rectifying potassium channel KCNH2 (Homo sapiens, UniProt Q12809) / pIC50 / CN1CN(CC2CCC2)Cc2c(O)ccc3oc(-c4ccc(O)cc4)c(c23)C1=O : value?
### Response < 4.00

### Prompt Voltage-gated inwardly rectifying potassium channel KCNH2 (Homo sapiens, UniProt Q12809) / pIC50 / O=c1oc2cc(O)ccc2c2oc3ccc(O)c(CN4CCCCC4)c3c12 : value?
### Response 6.28

====

Field: half-life at 0.1 µM. Provide a value for each of the compounds that follow.
# TEST_PROTOCOL: Metabolic stability in human liver microsomes assessed as half life at 0.1 uM measured upto 60 mins by LC/MS-MS analysis
# Format: ADME, Microsome
Number in min, nothing else.

### Prompt Using the record for CN1CN(CC2CCC2)Cc2c(O)ccc3oc(-c4ccc(O)cc4)c(c23)C1=O , report its half-life at 0.1 µM.
### Response 17.7

### Prompt Using the record for Oc1ccc2c3c(cn2-c2ccc(Br)cc2)CCN(CC2CCC2)Cc13 , report its half-life at 0.1 µM.
### Response 51.5

### Prompt Using the record for CN1CN(C2CCCC2)Cc2c(O)ccc3oc(-c4ccc(O)cc4)c(c23)C1=O , report its half-life at 0.1 µM.
### Response 28.9
